test system: Swiss mice, kidney; assay: Nephrotoxicity in mice (kidney histopathology); type: in vivo, mouse; conditions: mouse, in vivo
Residues, ends and D or L forms follow the SMILES beside them.
measuredParameter: Kidney histopathology, mice with the SQS score

Consider the worked cases shown below.
Name the reported Kidney histopathology, mice with the SQS score value associated with the compound CCCCCC(=O)N[C@@H](CCN)C(=O)N[C@H](C(=O)N[C@@H](CN)C(=O)N[C@H]1CCNC(=O)[C@H]([C@@H](C)O)NC(=O)[C@H](CCN)NC(=O)[C@H](CCN)NC(=O)[C@H](CC)NC(=O)[C@@H](CC(C)C)NC(=O)[C@H](CCN)NC1=O)[C@@H](C)O [Lipopeptide F342] (HELM PEPTIDE1{[CCCCCC(=O)[*:2]].[Dab].T.[NC[C@H](N[*:1])C(=O)[*:2]].[Dab].[Dab].[dL].[Abu].[Dab].[Dab].T}$PEPTIDE1,PEPTIDE1,5:R3-11:R2$$$V2.0) 3/3

Name the reported Kidney histopathology, mice with the SQS score value associated with the compound CCCCCCCC(=O)N[C@@H](CCN)C(=O)N[C@H](C(=O)N[C@@H](CCN)C(=O)N[C@H]1CCNC(=O)[C@H]([C@@H](C)O)NC(=O)[C@H](CCN)NC(=O)[C@H](CCN)NC(=O)[C@H](CC)NC(=O)[C@@H](CC(C)C)NC(=O)[C@H](CCN)NC1=O)[C@@H](C)O [Lipopeptide F319] (HELM PEPTIDE1{[CCCCCCCC(=O)[*:2]].[Dab].T.[Dab].[Dab].[Dab].[dL].[Abu].[Dab].[Dab].T}$PEPTIDE1,PEPTIDE1,5:R3-11:R2$$$V2.0) 1/3

Name the reported Kidney histopathology, mice with the SQS score value associated with the compound CCCCCCCC(=O)N[C@@H](CCN)C(=O)N[C@H](C(=O)N[C@@H](CN)C(=O)N[C@H]1CCNC(=O)[C@H]([C@@H](C)O)NC(=O)[C@H](CCN)NC(=O)[C@H](CCN)NC(=O)[C@H]([C@@H](C)O)NC(=O)[C@@H](CC(C)C)NC(=O)[C@H](CCN)NC1=O)[C@@H](C)O [Lipopeptide F251] (HELM PEPTIDE1{[CCCCCCCC(=O)[*:2]].[Dab].T.[NC[C@H](N[*:1])C(=O)[*:2]].[Dab].[Dab].[dL].T.[Dab].[Dab].T}$PEPTIDE1,PEPTIDE1,5:R3-11:R2$$$V2.0) 3/3

Name the reported Kidney histopathology, mice with the SQS score value associated with the compound CCCCCCCC(=O)N[C@@H](CCN)C(=O)N[C@H](C(=O)N[C@@H](CCN)C(=O)N[C@H]1CCNC(=O)[C@H]([C@@H](C)O)NC(=O)[C@H](CCN)NC(=O)[C@H](CCN)NC(=O)[C@H](C)NC(=O)[C@@H](CC(C)C)NC(=O)[C@H](CCN)NC1=O)[C@@H](C)O [Lipopeptide F124] (HELM PEPTIDE1{[CCCCCCCC(=O)[*:2]].[Dab].T.[Dab].[Dab].[Dab].[dL].A.[Dab].[Dab].T}$PEPTIDE1,PEPTIDE1,5:R3-11:R2$$$V2.0) 3/3

Name the reported Kidney histopathology, mice with the SQS score value associated with the compound CCCCCCCC(=O)N[C@@H](CCN)C(=O)N[C@H](C(=O)N[C@@H](CCN)C(=O)N[C@H]1CCNC(=O)[C@H]([C@@H](C)O)NC(=O)[C@H](CCN)NC(=O)[C@H](CCN)NC(=O)[C@H]([C@@H](C)O)NC(=O)[C@@H](CCCC)NC(=O)[C@H](CCN)NC1=O)[C@@H](C)O [Lipopeptide F226] (HELM PEPTIDE1{[CCCCCCCC(=O)[*:2]].[Dab].T.[Dab].[Dab].[Dab].[CCCC[C@@H](N[*:1])C(=O)[*:2]].T.[Dab].[Dab].T}$PEPTIDE1,PEPTIDE1,5:R3-11:R2$$$V2.0) 1/3

Name the reported Kidney histopathology, mice with the SQS score value associated with the compound CCCCCCCC(=O)N[C@@H](CCN)C(=O)N[C@H](C(=O)N[C@H](CCN)C(=O)N[C@H]1CCNC(=O)[C@H]([C@@H](C)O)NC(=O)[C@H](CCN)NC(=O)[C@H](CCN)NC(=O)[C@H]([C@@H](C)O)NC(=O)[C@@H](CC(C)C)NC(=O)[C@H](CCN)NC1=O)[C@@H](C)O [Lipopeptide F085] (HELM PEPTIDE1{[CCCCCCCC(=O)[*:2]].[Dab].T.[NCC[C@@H](N[*:1])C(=O)[*:2]].[Dab].[Dab].[dL].T.[Dab].[Dab].T}$PEPTIDE1,PEPTIDE1,5:R3-11:R2$$$V2.0) 2/2

Name the reported Kidney histopathology, mice with the SQS score value associated with the compound CC[C@@H]1NC(=O)[C@@H](CC(C)C)NC(=O)[C@H](CCN)NC(=O)[C@@H](NC(=O)[C@H](CN)NC(=O)[C@@H](NC(=O)[C@H](CCN)NC(=O)c2c(Cl)cccc2Cl)[C@@H](C)O)CCNC(=O)[C@H]([C@@H](C)O)NC(=O)[C@H](CCN)NC(=O)[C@H](CCN)NC1=O [Lipopeptide F360] (HELM PEPTIDE1{[O=C(c1c(Cl)cccc1Cl)[*:2]].[Dab].T.[NC[C@H](N[*:1])C(=O)[*:2]].[Dab].[Dab].[dL].[Abu].[Dab].[Dab].T}$PEPTIDE1,PEPTIDE1,5:R3-11:R2$$$V2.0) 3/3

Now look at this entry.
Name the reported Kidney histopathology, mice with the SQS score value associated with the compound CC[C@@H]1NC(=O)[C@@H](CC(C)C)NC(=O)[C@H](CCN)NC(=O)[C@@H](NC(=O)[C@H](CN)NC(=O)[C@@H](NC(=O)[C@H](CCN)NC(=O)c2ccc(Cl)cc2Cl)[C@@H](C)O)CCNC(=O)[C@H]([C@@H](C)O)NC(=O)[C@H](CCN)NC(=O)[C@H](CCN)NC1=O [Lipopeptide F365] (HELM PEPTIDE1{[O=C(c1ccc(Cl)cc1Cl)[*:2]].[Dab].T.[NC[C@H](N[*:1])C(=O)[*:2]].[Dab].[Dab].[dL].[Abu].[Dab].[Dab].T}$PEPTIDE1,PEPTIDE1,5:R3-11:R2$$$V2.0) 3/3

----------
tested on: P. aeruginosa ATCC 27853; assay: Neutropenic mouse bloodstream infection model; type: in vivo; settings: single IV dose 4 mg/kg, 4 h, treated minus control, mean of replicates; 4 mg/kg
Residues, ends and D or L forms follow the SMILES beside them.
measuredParameter: Δlog10 CFU/mL blood (mean) (log10 CFU/mL blood)
The answer is to be given in log10 CFU/mL blood; state only the numeric part.

Name the reported Δlog10 CFU/mL blood (mean) value associated with the molecule CC[C@@H]1NC(=O)[C@@H](CC(C)C)NC(=O)[C@H](CCN)NC(=O)[C@@H](NC(=O)[C@H](CN)NC(=O)[C@@H](NC(=O)[C@H](CCN)NC(=O)c2ccc(-c3ccccc3)cc2)[C@@H](C)O)CCNC(=O)[C@H]([C@@H](C)O)NC(=O)[C@H](CCN)NC(=O)[C@H](CCN)NC1=O [Lipopeptide F477] (HELM PEPTIDE1{[O=C(c1ccc(-c2ccccc2)cc1)[*:2]].[Dab].T.[NC[C@H](N[*:1])C(=O)[*:2]].[Dab].[Dab].[dL].[Abu].[Dab].[Dab].T}$PEPTIDE1,PEPTIDE1,5:R3-11:R2$$$V2.0) −3.89

----------
assay: in vitro; type: cell-based, human; conditions: human, wild-type HK-2 cells (kidney proximal tubular), Cell viability, WT, Rep4
Residues, ends and D or L forms follow the SMILES beside them.
measuredParameter: viability at 24 h (%)
The answer is to be given in %; state only the numeric part.

Consider the worked cases shown below.
Name the reported viability at 24 h value associated with the molecule CCCCCCCC(=O)N[C@@H](CCN)C(=O)N[C@H](C(=O)N[C@@H](CN)C(=O)N[C@H]1CCNC(=O)[C@H]([C@@H](C)O)NC(=O)[C@H](CCN)NC(=O)[C@H](CCN)NC(=O)[C@H](CC)NC(=O)[C@@H](CC(C)C)NC(=O)[C@H](CCN)NC1=O)[C@@H](C)O [Lipopeptide F287] (HELM PEPTIDE1{[CCCCCCCC(=O)[*:2]].[Dab].T.[NC[C@H](N[*:1])C(=O)[*:2]].[Dab].[Dab].[dL].[Abu].[Dab].[Dab].T}$PEPTIDE1,PEPTIDE1,5:R3-11:R2$$$V2.0) 47

Name the reported viability at 24 h value associated with the molecule CCCCCCCC(=O)N[C@@H](CCN)C(=O)N[C@H](C(=O)N[C@@H](CCN)C(=O)N[C@H]1CCNC(=O)[C@H]([C@@H](C)O)NC(=O)[C@H](CCN)NC(=O)[C@H](CCN)NC(=O)[C@H](CC)NC(=O)[C@@H](CC(C)C)NC(=O)[C@H](CCN)NC1=O)[C@@H](C)O [Lipopeptide F319] (HELM PEPTIDE1{[CCCCCCCC(=O)[*:2]].[Dab].T.[Dab].[Dab].[Dab].[dL].[Abu].[Dab].[Dab].T}$PEPTIDE1,PEPTIDE1,5:R3-11:R2$$$V2.0) 70.1

Now look at this entry.
Name the reported viability at 24 h value associated with the molecule CC[C@@H]1NC(=O)[C@@H](CC(C)C)NC(=O)[C@H](CCN)NC(=O)[C@@H](NC(=O)[C@H](CN)NC(=O)[C@@H](NC(=O)[C@H](CCN)NC(=O)c2ccc(Cl)cc2Cl)[C@@H](C)O)CCNC(=O)[C@H]([C@@H](C)O)NC(=O)[C@H](CCN)NC(=O)[C@H](CCN)NC1=O [Lipopeptide F365] (HELM PEPTIDE1{[O=C(c1ccc(Cl)cc1Cl)[*:2]].[Dab].T.[NC[C@H](N[*:1])C(=O)[*:2]].[Dab].[Dab].[dL].[Abu].[Dab].[Dab].T}$PEPTIDE1,PEPTIDE1,5:R3-11:R2$$$V2.0) 95.1

# credit: paper PMC8956739
